# ASSAY_NAME: solvent given as SMILES
# CONDITION_PARAMETERS: in ClCCl
Recorded absorption maximum by entry
Field: numeric (nm). Do not append units.

Record excerpt, results attached:
>>> readout_number("O=C(c1ccncc1)c1ccc(-n2c3ccccc3c3ccccc32)cc1")
359.23
>>> readout_number("O=C1c2ccccc2-c2nc3c4ccccc4c4ccccc4c3n21")
441
>>> readout_number("c1ccc(C2=C(c3ccccc3)c3cccc4c3c(cc3nc5c(-c6ccccc6)ccc(-c6ccccc6)c5nc34)O2)cc1")
503
>>> readout_number("COc1cc2c(cc1OC)C1=C[C@H](c3ccc(C)cc3)C3(C(C#N)=C(C#N)N1CC2)c1ccccc1-c1ccccc13")
317

Specify measured absorption maximum for COc1ccc(/C=C/c2cc(/C=C/c3ccc(OC)cc3)nc(/C=C/c3ccc(C(F)(F)F)cc3)n2)cc1 .
370

====

# maps each entry to its absorption maximum
# ASSAY_NAME: solvent given as SMILES
# CONDITION_PARAMETERS: in C1CCOC1
The reply should be a number in nm, with the unit left off.

Consider the reported absorption maximum for these compounds:
>>> readout_number("CCc1c(C)[nH]c(C2=[N+]3C(=Cc4c(C)cc(C)n4[B-]3(F)F)c3ccccc32)c1C")
615
>>> readout_number("Cc1cc(C)cc(NC(=O)c2sc(Br)nc2C)c1")
293.4
>>> readout_number("C1=Cc2ccccc2C(=Cc2ccc(-c3cc(-c4ccc(C=C5c6ccccc6C=Cc6ccccc65)cc4)cc(-c4ccc(C=C5c6ccccc6C=Cc6ccccc65)cc4)c3)cc2)c2ccccc21")
325
>>> readout_number("N#C/C(=C\\c1cn(-c2ccccc2)nc1-c1ccccc1)c1nc2ccccc2s1")
381

Identify measured absorption maximum associated with CCC1(CC)c2cc(C#Cc3cc(C#Cc4ccc5c(c4)C(CC)(CC)c4cc(N(c6ccccc6)c6ccccc6)ccc4-5)c4ccc5c(C#Cc6ccc7c(c6)C(CC)(CC)c6cc(N(c8ccccc8)c8ccccc8)ccc6-7)cc(C#Cc6ccc7c(c6)C(CC)(CC)c6cc(N(c8ccccc8)c8ccccc8)ccc6-7)c6ccc3c4c65)ccc2-c2ccc(N(c3ccccc3)c3ccccc3)cc21
506

Please give measured absorption maximum of the following entry: CCn1c2ccccc2c2cc(/C=C3\C(=O)c4ccccc4S3(=O)=O)ccc21
446

// fetch absorption maximum given entry CCC1(CC)c2cc(C#Cc3cccs3)ccc2-c2c1c1c(c3c2C(CC)(CC)c2cc(C#Cc4cccs4)ccc2-3)C(CC)(CC)c2cc(C#Cc3cccs3)ccc2-1
362

Complete the entry with absorption maximum for CC1=CC(C)=[N+]2C1=C(c1ccc(N3CCOCC3)cc1)c1c(C)cc(C)n1[B-]2(F)F
500

Tell me measured absorption maximum for Cc1ccc(C2=C3C=C4C(=[N+]3[B-](F)(F)n3c2cc2c3-c3ccccc3C23c2ccccc2-c2ccccc23)c2ccccc2C42c3ccccc3-c3ccccc32)cc1 please.
634

Name the recorded absorption maximum of the item COc1cc(OC)cc(C2=C3C(C)=C(I)C(/C=C/c4c[nH]c5ccccc45)=[N+]3[B-](F)(F)n3c(/C=C/c4c[nH]c5ccccc45)c(I)c(C)c32)c1 in your answer.
715

Please give measured absorption maximum of the following entry: COc1cc2c(cc1-c1ccc(N(C)C)cc1)Cc1c3c(c4c(c1-2)-c1cc(OC)c(-c2ccc(N(C)C)cc2)cc1C4)C(=O)N(CCC(C)C)C3=O
440

src = the Deep4Chem optical property database
